Biological target: Protein tyrosine phosphatase 1B (PTP-1B) (Homo sapiens)
Sequence (P18031 whole entry, species assumed): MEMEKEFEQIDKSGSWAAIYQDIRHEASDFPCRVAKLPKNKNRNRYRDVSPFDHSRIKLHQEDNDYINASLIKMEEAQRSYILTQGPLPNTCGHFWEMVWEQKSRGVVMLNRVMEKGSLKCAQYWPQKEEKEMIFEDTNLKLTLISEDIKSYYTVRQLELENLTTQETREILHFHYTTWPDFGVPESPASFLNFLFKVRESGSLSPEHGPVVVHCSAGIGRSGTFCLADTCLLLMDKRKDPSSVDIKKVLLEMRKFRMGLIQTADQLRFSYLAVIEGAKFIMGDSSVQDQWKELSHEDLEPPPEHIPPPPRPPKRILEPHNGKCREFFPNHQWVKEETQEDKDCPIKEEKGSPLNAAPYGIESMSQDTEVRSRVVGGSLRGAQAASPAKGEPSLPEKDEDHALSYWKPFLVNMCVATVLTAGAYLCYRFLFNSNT
Assay: Protein tyrosine phosphatase 1B (PTP-1B) inhibition assay with pNPP substrate
Format: biochemical
pIC50: −log10 of the molar value.
readout type: pIC50

Requested read-out: pIC50. Entry: C[C@@H]1O[C@@H](Oc2c(-c3ccc(O)c(O)c3)oc3cc(O)cc(O)c3c2=O)[C@H](O)[C@H](O)[C@H]1O [Compound 4, Quercetin-3-O-α-L-rhamnoside]
< 4.30

---

Record form. Attribute: Inhibition Zone Diameter EC. Fill in for each entry.
Test system: Escherichia coli ATCC 11229
Assay: Antimicrobial activity, agar well diffusion method
Format: cell-based
Details: 37 °C, 24 h
Write the answer as a number in mm, unit excluded.

Which measured Inhibition Zone Diameter EC belongs to O=c1c(O[C@@H]2O[C@H](CO)[C@H](O)[C@H](O)[C@H]2O)c(-c2ccc(O)c(O)c2)oc2cc(O)cc(O)c12 [Compound 6, Quercetin-3-O-β-D-galactopyranoside] , tested on Escherichia coli ATCC 11229?
6.5

Which measured Inhibition Zone Diameter EC belongs to C[C@@H]1O[C@@H](Oc2c(-c3ccc(O)c(O)c3)oc3cc(O)cc(O)c3c2=O)[C@H](O)[C@H](O)[C@H]1O [Compound 4, Quercetin-3-O-α-L-rhamnoside] , tested on Escherichia coli ATCC 11229?
8

Which measured Inhibition Zone Diameter EC belongs to CC1(C)S[C@@H]2[C@H](NC(=O)[C@H](N)c3ccccc3)C(=O)N2[C@H]1C(=O)O [Ampicillin, reference compound] , tested on Escherichia coli ATCC 11229?
14

Which measured Inhibition Zone Diameter EC belongs to O=c1c(O[C@@H]2O[C@@H](CO)[C@H](O)[C@H]2O)c(-c2ccc(O)c(O)c2)oc2cc(O)cc(O)c12 [Compound 3, Quercetin-3-O-α-L-arabinofuranoside] , tested on Escherichia coli ATCC 11229?
5.5
